Entry source: ChEMBL document CHEMBL4385626

Below is a list of entries, each paired with its recorded IC50 value.
# Test system: Jurkat
# Measurement description: Cytotoxicity against human Jurkat cells incubated for 3 days by CellTiter-Glo luminescent assay
# Type: functional, cell-based
# Experimental context: 72 h

Query smiles | IC50
O=C(Nc1ccc(Cl)c(Br)c1)c1cc(Cl)ccc1O | 1.35 µM
O=C(Nc1ccc(OC(F)(F)F)c(Cl)c1)c1ccc(C(F)(F)F)cc1O | 0.79 µM
O=C(Nc1ccc(OC(F)(F)F)cc1Cl)c1cc(Cl)ccc1O | 0.88 µM
O=C(Nc1ccc([N+](=O)[O-])cc1)c1cc(F)ccc1O | 0.94 µM
O=C(Nc1ccc(Cl)cc1Cl)c1cc(F)ccc1O | 0.88 µM
O=C(Nc1ccc(C(F)(F)F)cc1)c1cc(Cl)c(-c2ccccc2)cc1O | 1.16 µM
O=C(Nc1cc(F)cc(F)c1)c1ccc2cccnc2c1O | 0.43 µM
O=C(Nc1cccc(OC(F)(F)F)c1)c1cc(F)ccc1O | 0.7 µM
O=C(Nc1cc(C(F)(F)F)cc(C(F)(F)F)c1)c1cc(Cl)c(F)cc1O | 0.73 µM
Cc1cc(C#N)ccc1NC(=O)c1ccc2cccnc2c1O | 0.27 µM
N#Cc1ccc(NC(=O)c2ccc(Br)cc2O)c(Cl)c1 | 0.75 µM

----------
# Measurement description: Metabolic stability in mouse liver microsomes assessed as half life in presence of NADPH by LC-MS/MS analysis
# Type: ADME, Microsome
Listed here: items and their measured half-life.

Molecule | Unit spec | half-life
O=C(Nc1ccc([N+](=O)[O-])cc1Cl)c1cc(Cl)ccc1O [NICLOSAMIDE] | min | 6.6
N#Cc1ccc(NC(=O)c2cc3ccccc3cc2O)cc1 | min | 5.5
N#Cc1ccc(NC(=O)c2ccc3cccnc3c2O)cc1 | min | 157
O=C(Nc1cc(C(F)(F)F)cc(C(F)(F)F)c1)c1ccc(Cl)cc1O | min | 31.8
O=C(Nc1cc(C(F)(F)F)cc(C(F)(F)F)c1)c1cc(Br)c(-c2ccccc2)cc1O | min | 159
O=C(Nc1cc(C(F)(F)F)cc(C(F)(F)F)c1)c1cc(Br)ccc1O | min | 29.1

----------
Each entry below carries its recorded AUC(0-inf).
# Measurement description: AUC (0 to infinity) in NSG mouse at 2 mg/kg, iv measured after 7 to 150 mins by LC/MS/MS analysis
# Format: ADME, organism-based
# Design: dose 2 mg/kg, time infinity, route intravenous
# Experimental context: in vivo

Compound | AUC(0-inf) [ng·h/mL]
O=C(Nc1cc(C(F)(F)F)cc(C(F)(F)F)c1)c1cc(Br)c(-c2ccccc2)cc1O | 2330
O=C(Nc1ccc([N+](=O)[O-])cc1Cl)c1cc(Cl)ccc1O [NICLOSAMIDE] | 536
N#Cc1ccc(NC(=O)c2ccc3cccnc3c2O)cc1 | 4090

----------
# Test system: Jurkat
# Measurement description: Cytotoxicity against human Jurkat cells incubated for 3 days by CellTiter-Glo luminescent assay
# Format: functional, cell-based
# Experimental context: 72 h
pIC50: −log10 of the molar value.
Measured quantity: pIC50

Query smiles | Assay system | Measured quantity | Number
N#Cc1ccc(NC(=O)c2ccc3cccnc3c2O)c(Cl)c1 | Jurkat | pIC50 | 6.26
O=C(Nc1ccc(OC(F)(F)F)c(Cl)c1)c1cc(F)ccc1O | Jurkat | pIC50 | 6.15
O=C(Nc1cc(C(F)(F)F)cc(C(F)(F)F)c1)c1ccc(-c2ccccc2)cc1O | Jurkat | pIC50 | 5.91

----------
# Test system: Jurkat
# Measurement description: Cytotoxicity against human Jurkat cells incubated for 3 days by CellTiter-Glo luminescent assay
# Type: functional, cell-based
# Experimental context: 72 h
pIC50: −log10 of the molar value.
Measured quantity: pIC50

Query smiles | Measured quantity | Number
N#Cc1ccc(NC(=O)c2ccc3cccnc3c2O)c(F)c1 | pIC50 | 6.38
O=C(Nc1cccc(C(F)(F)F)c1)c1cc(F)ccc1O | pIC50 | 6.08
O=C(Nc1ccc(OC(F)(F)F)c(Cl)c1)c1cc(Cl)ccc1O | pIC50 | 6.08
O=C(Nc1ccc(C(F)(F)F)cc1)c1ccc(F)cc1O | pIC50 | 6.10
O=C(Nc1ccc(C(F)(F)F)cc1)c1ccc(Br)cc1O | pIC50 | 6.30
